# relative KD to parent values compiled below
# Tested on: T1, His-tagged CEACAM1 (human, UniProt P13688 35-428)
# T1 construct: 45 kDa SPR analyte; also called CEACAM1-HIS; CEACAM1 analyte
# T1 sequence: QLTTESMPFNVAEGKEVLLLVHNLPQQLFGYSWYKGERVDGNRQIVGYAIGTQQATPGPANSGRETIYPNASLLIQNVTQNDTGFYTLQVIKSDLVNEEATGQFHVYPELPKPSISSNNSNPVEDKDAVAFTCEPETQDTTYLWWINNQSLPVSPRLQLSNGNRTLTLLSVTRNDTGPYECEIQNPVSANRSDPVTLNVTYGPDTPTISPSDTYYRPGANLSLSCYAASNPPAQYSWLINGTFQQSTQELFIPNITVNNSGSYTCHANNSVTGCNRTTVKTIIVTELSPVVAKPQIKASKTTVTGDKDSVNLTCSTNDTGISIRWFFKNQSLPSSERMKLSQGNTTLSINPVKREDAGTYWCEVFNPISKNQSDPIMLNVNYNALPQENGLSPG
# Assay remarks: SPR single-cycle, supernatant IgG captured
# respond with the number and nothing more

Give relative KD to parent for CP09E05/Vκ8 S29A (antibody, IgG4, V domains shown, IgG4 (S241P), kappa) VH: EVQLLESGGGLVQPGGSLRLSCAASGFIFSSHGMSWVRQAPGKGLEWVATISSGGTYTYYPDSVKGRFTISRDNSKNTLYLQMNSLKAEDTAMYYCARHGFDYDAAWFAYWGQGTLVTVSS VL: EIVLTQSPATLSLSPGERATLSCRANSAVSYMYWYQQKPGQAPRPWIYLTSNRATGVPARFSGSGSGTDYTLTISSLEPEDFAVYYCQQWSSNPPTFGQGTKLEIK
1.8
